# assay-name: Geometric mean of antibacterial activity (Gram -ve bacteria) of the compound
# Format: functional
Decide by Geometric mean: equal to or exceeding 0.5 means criterion met, less means criterion not met.

CNc1cc2c(=O)c(C(=O)O)cn(C3CC3)c2c(C)c1N1CCC(C)CC1 : criterion met
Cc1c(N2CCC2)c(N)cc2c(=O)c(C(=O)O)cn(C3CC3)c12 : criterion met
Cc1c(N2CC(C)OC(C)C2)c(N)cc2c(=O)c(C(=O)O)cn(C3CC3)c12 (stereo not given) : criterion not met

Could you verify whether the entry Cc1c(N2CCNC(C)C2)c(N)cc2c(=O)c(C(=O)O)cn(C3CC3)c12 (stereo not given) shows Geometric mean of no less than 0.5?
criterion not met

Is Geometric mean at least 0.5? Consider Cc1c(N2CCC3CCCCC3C2)c(N)cc2c(=O)c(C(=O)O)cn(C3CC3)c12 (stereo not given)
criterion met

Does the compound "COc1ccc(-n2cc(C(=O)O)c(=O)c3cc(N)c(N4CCN(C)CC4)c(C)c32)cc1" have recorded Geometric mean that is 0.5 or more?
criterion met

Could you please find out whether "Cc1c(N2CCc3ccccc3C2)c([N+](=O)[O-])cc2c(=O)c(C(=O)O)cn(C3CC3)c12" has Geometric mean that meets 0.5 or exceeds it?
criterion met

Item "Nc1cc2c(=O)c(C(=O)O)cn(C3CC3)c2cc1N1CCc2ccccc2C1" with Geometric mean of 0.5 or above?
criterion met

Confirm if Geometric mean reported for the compound "Cc1c(N2CCCCC2)c([N+](=O)[O-])cc2c(=O)c(C(=O)O)cn(C3CC3)c12" is 0.5 or above.
criterion met

Is Geometric mean for Cc1c(N2CCCC(C)C2)c(N)cc2c(=O)c(C(=O)O)cn(C3CC3)c12 (stereo not given) at or above 0.5?
criterion not met

Given the entry "Cc1c(N2CCNCC2)c(N)cc2c(=O)c(C(=O)O)cn(C3CC3)c12" , answer whether its Geometric mean meets or surpasses 0.5.
criterion not met

Hi, just wondering whether "Cc1c(N2CCN(C)CC2)c(N)cc2c(=O)c(C(=O)O)cn(-c3ccc(F)cc3)c12" shows Geometric mean of 0.5 or higher.
criterion met

Is it the case that "Nc1cc2c(=O)c(C(=O)O)cn(C3CC3)c2cc1N1CCNCC1" has Geometric mean reaching or exceeding 0.5?
criterion met

Hi team, for "Cc1c(N2CCCCC2)c(F)cc2c(=O)c(C(=O)O)cn(C3CC3)c12" , is the recorded Geometric mean at or above 0.5?
criterion met

In plain terms: is recorded Geometric mean at least 0.5 for "Cc1c(N2C[C@@H](C)O[C@@H](C)C2)c(N)cc2c(=O)c(C(=O)O)cn(C3CC3)c12" ?
criterion not met
